From: ChEMBL document CHEMBL4811219

Listed here: items and their measured AUC.
EXPERIMENT: Observed AUC (0-7 hrs) in CD-1 mouse at 10 mg/kg, ip by LC-MS/MS analysis
Format: ADME, organism-based
Set-up: time < 7 hr, route intraperitoneal, dose 10 mg/kg
EXPERIMENTAL_PARAMETERS: in vivo
# number only, unit µM·h dropped from output

// below: answered molecules
CC(Sc1nc2nn(C3COC3)cc2c(=O)n1-c1ccccc1)c1ccccc1 (stereo not given)
19.5
CC(Sc1nc2nn(C3(C)COC3)cc2c(=O)n1-c1ccccc1)c1ccccc1 (stereo not given)
23
CC(Sc1nc2c(cnn2C)c(=O)n1-c1ccccc1)c1ccccn1 (stereo not given)
7.9
C[C@@H](Sc1nc2c(cnn2C)c(=O)n1-c1ccccc1)c1ccccc1
0.7

// next entry
In: Given the entry CC(Sc1nc2c(cnn2C)c(=O)n1-c1ccccc1)c1ccccc1 (stereo not given) , report its measured AUC.
Out: 4.9
